test_method_notes: Competitive inhibition of bovine aortic PDE4 using cAMP as substrate by Lineweaver-Burk plot analysis
Parameters: species or system Bos taurus
Measured Ki of individual entries
A number alone suffices; assume nM.

smiles_repr: CCOc1ccc(C2=NN(C)C(=O)Cc3ccccc32)cc1OCC
measured_metric: Ki
endpoint_result: 66

// below: Ki requested for another compound
### Prompt Could you share which Ki value was measured for CCOc1ccc(C(=O)c2ccccc2Cl)cc1OCC ?
### Response 420

----------
system_tested: cGMP-specific 3',5'-cyclic phosphodiesterase (Bos taurus)
test_method_notes: Inhibition of bovine aortic PDE5 using cGMP as substrate at 10 uM in presence of EGTA
measured_metric: inhibition (%)
A number alone suffices; assume %.

// solved cases for inhibition follow
compound: CCOc1ccc(C2=NNC(=O)Cc3ccccc32)cc1OCC
system_tested: cGMP-specific 3',5'-cyclic phosphodiesterase (Bos taurus)
unit_descriptor: %
endpoint_result: 17
--
compound: CCOc1cc2c(cc1OCC)C(c1ccccc1)=NNC(=O)C2
system_tested: cGMP-specific 3',5'-cyclic phosphodiesterase (Bos taurus)
unit_descriptor: %
endpoint_result: 30
--
compound: CCOc1ccc(C(=O)c2ccccc2Cl)cc1OCC
system_tested: cGMP-specific 3',5'-cyclic phosphodiesterase (Bos taurus)
unit_descriptor: %
endpoint_result: 4

// below: inhibition requested for another compound
### Prompt Could you share which inhibition value was measured for CCOc1cc2c(cc1OCC)C(CC)C(C)=NN=C2c1ccc(Cl)cc1 (centres undefined) ?
### Response 39

----------
system_tested: cGMP-specific 3',5'-cyclic phosphodiesterase (Bos taurus, UniProt Q28156)
test_method_notes: Inhibition of bovine aortic PDE5 using cGMP as substrate in presence of EGTA
measured_metric: pIC50
Friendly reminder that pIC50 comes from taking -log10 of the concentration in mol/L.

### Prompt Could you share which pIC50 value was measured for COc1cc2c(cc1OC)C(c1cccc(Cl)c1)=NN=C(C)C2 [GIRISOPAM] ?
### Response 4.90

----------
Organism: Bos taurus
test_method_notes: Inhibition of bovine aortic PDE3 using cAMP as substrate at 10 uM in presence of rolipram
Measured inhibition of individual entries
Answer with the value and then the unit.

compound: CCOc1cc2c(cc1OCC)C(c1ccccc1)=NNC(=O)C2
inhibition: 30%

compound: CCOc1ccc(C(=O)c2ccccc2Cl)cc1OCC
inhibition: 24%

compound: CCOc1cc2c(cc1OCC)C(CC)C(C)=NN=C2c1ccc(Cl)cc1 (stereo not given)
inhibition: 4%

compound: CCOc1ccc(C2=NNC(=O)Cc3ccccc32)cc1OCC
inhibition: 12%

### Prompt Could you share which inhibition value was measured for COc1cc2c(cc1OC)C(c1cccc(Cl)c1)=NN=C(C)C2 [GIRISOPAM] ?
### Response 22%

----------
test_method_notes: Inhibition of bovine aortic endothelial cells PDE2 using cAMP as substrate in presence of cGMP
Type: cell-based, Bos taurus
run_parameters: endothelial cell
Measured IC50 of individual entries
A number alone suffices; assume nM.

molecule: COc1cc2c(cc1OC)C(c1cccc(Cl)c1)=NN=C(C)C2
measured_metric: IC50
endpoint_result: 4000

### Prompt Could you share which IC50 value was measured for CCC1C(C)=NN=C(c2ccc(OC)c(OC)c2)c2cc(OC)c(OC)cc21 (configuration not stated) ?
### Response 900
